# procedureSummary: Solubility in test solutions at different pHs and water
# Type: physicochemical
# experimentalContext: pH 6.8 phosphate buffered solution, 37° C.
propertyMeasured: 24-hour solubility (mg/mL)

compound | unitString | 24-hour solubility
CCc1cc2c(N3CCC(C)(OC)CC3)c(C#N)c(=O)[nH]c2cn1 [Compound of formula (I)] | mg/mL | 0.16
CCc1cc2c(N3CCC(C)(OC)CC3)c(C#N)c(=O)[nH]c2cn1 [Crystal form I] | mg/mL | 0.11

[I] CCc1cc2c(N3CCC(C)(OC)CC3)c(C#N)c(=O)[nH]c2cn1 [Crystal form VI]
[II] CCc1cc2c(N3CCC(C)(OC)CC3)c(C#N)c(=O)[nH]c2cn1 [Crystal form V]
Lookup: Short answer wanted: higher 24-hour solubility, I or II ? State your choice using its label.
Found: II

###

# procedureSummary: Stability test of different crystal forms
# Type: physicochemical
# experimentalContext: 0 day
propertyMeasured: Trait

compound | result
CCc1cc2c(N3CCC(C)(OC)CC3)c(C#N)c(=O)[nH]c2cn1 [Crystal form II] | Yellow powder
CCc1cc2c(N3CCC(C)(OC)CC3)c(C#N)c(=O)[nH]c2cn1 [Crystal form IV] | Yellow powder
CCc1cc2c(N3CCC(C)(OC)CC3)c(C#N)c(=O)[nH]c2cn1 [Crystal form I] | Yellow powder
CCc1cc2c(N3CCC(C)(OC)CC3)c(C#N)c(=O)[nH]c2cn1 [Crystal form V] | Yellow powder
CCc1cc2c(N3CCC(C)(OC)CC3)c(C#N)c(=O)[nH]c2cn1 [Crystal form VI] | Yellow powder

Proceed to the following item.
Lookup: GET /values?readout=Trait&item= CCc1cc2c(N3CCC(C)(OC)CC3)c(C#N)c(=O)[nH]c2cn1 [Crystal form III]
Found: Yellow powder

###

# procedureSummary: Stability test of different crystal forms
# Assay type: physicochemical
# experimentalContext: Placed at RH 92.5% for 10 days
propertyMeasured: Content (%)

compound | numericReadout
CCc1cc2c(N3CCC(C)(OC)CC3)c(C#N)c(=O)[nH]c2cn1 [Crystal form II] | 99.8
CCc1cc2c(N3CCC(C)(OC)CC3)c(C#N)c(=O)[nH]c2cn1 [Crystal form I] | 100.3
CCc1cc2c(N3CCC(C)(OC)CC3)c(C#N)c(=O)[nH]c2cn1 [Crystal form IV] | 90.8
CCc1cc2c(N3CCC(C)(OC)CC3)c(C#N)c(=O)[nH]c2cn1 [Crystal form V] | 97.4

###

# procedureSummary: Solubility in test solutions at different pHs and water
# Assay type: physicochemical
# experimentalContext: Water, 37° C.
propertyMeasured: 24-hour solubility (µg/mL)

Field: example entries. Status: answers known.
compound | propertyMeasured | numericReadout
CCc1cc2c(N3CCC(C)(OC)CC3)c(C#N)c(=O)[nH]c2cn1 [Crystal form VI] | 24-hour solubility | 260
CCc1cc2c(N3CCC(C)(OC)CC3)c(C#N)c(=O)[nH]c2cn1 [Crystal form VII] | 24-hour solubility | 150
CCc1cc2c(N3CCC(C)(OC)CC3)c(C#N)c(=O)[nH]c2cn1 [Compound of formula (I)] | 24-hour solubility | 170
CCc1cc2c(N3CCC(C)(OC)CC3)c(C#N)c(=O)[nH]c2cn1 [Crystal form IV] | 24-hour solubility | 140

[a] CCc1cc2c(N3CCC(C)(OC)CC3)c(C#N)c(=O)[nH]c2cn1 [Crystal form V]
[b] CCc1cc2c(N3CCC(C)(OC)CC3)c(C#N)c(=O)[nH]c2cn1 [Crystal form I]
[c] CCc1cc2c(N3CCC(C)(OC)CC3)c(C#N)c(=O)[nH]c2cn1 [Crystal form II]
[d] CCc1cc2c(N3CCC(C)(OC)CC3)c(C#N)c(=O)[nH]c2cn1 [Crystal form III]
Lookup: # rank_down: sort by 24-hour solubility, max first Reply format: the labels, ordered as requested.
Found: a, d, c, b
(a: 330 µg/mL, d: 230 µg/mL, c: 160 µg/mL, b: 110 µg/mL)
